Source listed as ChEMBL document CHEMBL4680175.

Target: Cyclin-dependent kinase 2/cyclin E1 (Homo sapiens)
Assay: Inhibition of CDK2/cyclin E (unknown origin) expressed in baculovirus infected Sf21 insect cells using histone H1 as substrate in presence of [gamma33P]ATP
Give measured IC50 for each item. Keep answers brief.

Value of IC50 reported for the compound `Nc1nn2c(-c3ccc(F)cc3)ccnc2c1/N=N/c1ccc(S(N)(=O)=O)cc1` is > 12.5 µM

Value of IC50 reported for the compound `Nc1nn2c(-c3ccc(Cl)cc3)ccnc2c1/N=N/c1ccc(S(N)(=O)=O)cc1` is 6.4 µM

Value of IC50 reported for the compound `N#Cc1c(-c2ccc(Cl)cc2)nc2c(/N=N/c3ccc(S(N)(=O)=O)cc3)c(N)nn2c1N` is > 12.5 µM

Value of IC50 reported for the compound `Nc1n[nH]c(N)c1/N=N/c1ccc(S(N)(=O)=O)cc1` is 41.7 µM

Value of IC50 reported for the compound `Nc1nn2c(-c3ccccc3)ccnc2c1/N=N/c1ccc(S(N)(=O)=O)cc1` is > 12.5 µM

Value of IC50 reported for the compound `N#Cc1c(-c2ccccc2)nc2c(/N=N/c3ccc(S(N)(=O)=O)cc3)c(N)nn2c1N` is > 12.5 µM

Value of IC50 reported for the compound `Nc1nn2c(-c3ccc(Br)cc3)ccnc2c1/N=N/c1ccc(S(N)(=O)=O)cc1` is 8 µM

Value of IC50 reported for the compound `Nc1nn2c(-c3ccc([N+](=O)[O-])cc3)ccnc2c1/N=N/c1ccc(S(N)(=O)=O)cc1` is > 12.5 µM

Value of IC50 reported for the compound `Cc1ccc(-c2cn3nc(N)c(/N=N/c4ccc(S(N)(=O)=O)cc4)c3[nH]2)cc1` is 20.3 µM

Value of IC50 reported for the compound `Nc1nn2cc(-c3ccc(Br)cc3)[nH]c2c1/N=N/c1ccc(S(N)(=O)=O)cc1` is > 12.5 µM

Value of IC50 reported for the compound `Cc1ccc(-c2ccnc3c(/N=N/c4ccc(S(N)(=O)=O)cc4)c(N)nn23)cc1` is > 12.5 µM

Value of IC50 reported for the compound `N#Cc1c(-c2ccc(Br)cc2)nc2c(/N=N/c3ccc(S(N)(=O)=O)cc3)c(N)nn2c1N` is > 12.5 µM

Value of IC50 reported for the compound `Nc1nn2cc(-c3ccc(F)cc3)[nH]c2c1/N=N/c1ccc(S(N)(=O)=O)cc1` is > 12.5 µM

---

Molecular target: Carbonic anhydrase 12 (Homo sapiens, UniProt O43570)
Sequence (O43570 whole entry): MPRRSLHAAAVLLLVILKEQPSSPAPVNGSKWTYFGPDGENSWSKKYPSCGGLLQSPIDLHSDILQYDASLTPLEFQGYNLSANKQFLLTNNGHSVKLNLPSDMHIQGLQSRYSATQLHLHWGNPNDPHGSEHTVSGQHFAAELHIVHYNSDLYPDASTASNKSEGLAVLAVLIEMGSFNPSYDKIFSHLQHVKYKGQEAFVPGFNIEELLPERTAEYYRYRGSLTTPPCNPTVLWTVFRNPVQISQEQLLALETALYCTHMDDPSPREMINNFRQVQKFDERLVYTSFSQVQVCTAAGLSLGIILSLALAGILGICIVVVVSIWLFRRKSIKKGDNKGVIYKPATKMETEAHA
Experiment: Inhibition of recombinant human carbonic anhydrase 12 preincubated with enzyme for 15 mins by phenol red dye based stopped flow CO2 hydrase assay
RESULT TYPE: pKi
Convention used: pKi is expressed as -log10 of the molar concentration.

Value of pKi reported for the compound `Nc1nn2cc(-c3ccc(F)cc3)[nH]c2c1/N=N/c1ccc(S(N)(=O)=O)cc1` is 7.73

Value of pKi reported for the compound `Nc1nn2cc(-c3ccc(Cl)cc3)[nH]c2c1/N=N/c1ccc(S(N)(=O)=O)cc1` is 7.44

Value of pKi reported for the compound `Nc1nn2c(-c3ccc(Br)cc3)ccnc2c1/N=N/c1ccc(S(N)(=O)=O)cc1` is 7.27

Value of pKi reported for the compound `N#Cc1c(-c2ccccc2)nc2c(/N=N/c3ccc(S(N)(=O)=O)cc3)c(N)nn2c1N` is 7.40

Value of pKi reported for the compound `Nc1nn2c(-c3ccc(Cl)cc3)ccnc2c1/N=N/c1ccc(S(N)(=O)=O)cc1` is 7.35

Value of pKi reported for the compound `N#Cc1c(-c2ccc(Cl)cc2)nc2c(/N=N/c3ccc(S(N)(=O)=O)cc3)c(N)nn2c1N` is 7.85

Value of pKi reported for the compound `COc1ccc(-c2ccnc3c(/N=N/c4ccc(S(N)(=O)=O)cc4)c(N)nn23)cc1` is 7.05
